Molecular target: Adenosine receptor A1 (Homo sapiens)
Sequence (P30542 whole entry): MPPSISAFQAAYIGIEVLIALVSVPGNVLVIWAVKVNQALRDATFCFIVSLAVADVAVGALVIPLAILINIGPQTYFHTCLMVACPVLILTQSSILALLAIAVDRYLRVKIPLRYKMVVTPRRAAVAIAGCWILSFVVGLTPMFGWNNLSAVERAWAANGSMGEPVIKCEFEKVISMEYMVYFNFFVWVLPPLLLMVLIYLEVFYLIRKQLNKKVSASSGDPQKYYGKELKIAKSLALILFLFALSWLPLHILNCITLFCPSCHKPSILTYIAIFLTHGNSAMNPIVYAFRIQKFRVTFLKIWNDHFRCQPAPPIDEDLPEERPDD
Experiment: Compound was evaluated for the Adenosine A1 receptor agonist potency.
readout_type: EC50 (nM)

1: OC[C@H]1O[C@@H](n2cnc3c(N[C@@H]4CC5CC4C4OC54)ncnc32)[C@H](O)[C@@H]1O (some centres not stated)
2: OC[C@H]1O[C@@H](n2cnc3c(N[C@H]4CC5CC4C4OC54)ncnc32)[C@H](O)[C@@H]1O (some centres not stated)
From the items above, decide which of 1 and 2 has the lower EC50 reading. // respond with label for picked entry 2
(2: 0.81 nM, 1: 10 nM)
